Below, each entry is listed alongside its reported protein stability index.
B1: KLHL13 (parent)
chain: GVSKVGLRKIIDFIYTAKLSLNMD

# Variants of: B1
# Assay Protocol: protein stability index of a GFP-peptide fusion (GPS, HEK-293T) (PSI 1-6); higher = more stable;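 also: lentivirally expressed fusions sorted by FACS into six bins by GFP to DsRed ratio, PSI derived from sequencing read proportions per bin multiplied by bin number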
# Stated Conditions: c terminus: a fixed tail appended
The answer should be a number; do not append a unit.

Examples with their reported protein stability index follow.
GVVKVGLRKIIDFIYTAKLSLNMD : 4.55
GVSKVGLRKWIDFIYTAKLSLNMD : 4.2
GVSKVGGRKIIDFIYTAKLSLNMD : 3.85

Data request: What does the data say about its protein stability index? Entry: GVSKVGLRKIIQFIYTAKLSLNMD
Data returned: 2.36

Data request: Try GVSKVGLRKIIDFIYTEKLSLNMD next.
Data returned: 1.81

Data request: Please give the result for GVSKVGLRKIDDFIYTAKLSLNMD too.
Data returned: 2.14
